- Tested On: PAPD5 (Homo sapiens, UniProt Q8NDF8)
- Construct: made in house
- Sequence (Q8NDF8 68-698 isoform Q8NDF8-5): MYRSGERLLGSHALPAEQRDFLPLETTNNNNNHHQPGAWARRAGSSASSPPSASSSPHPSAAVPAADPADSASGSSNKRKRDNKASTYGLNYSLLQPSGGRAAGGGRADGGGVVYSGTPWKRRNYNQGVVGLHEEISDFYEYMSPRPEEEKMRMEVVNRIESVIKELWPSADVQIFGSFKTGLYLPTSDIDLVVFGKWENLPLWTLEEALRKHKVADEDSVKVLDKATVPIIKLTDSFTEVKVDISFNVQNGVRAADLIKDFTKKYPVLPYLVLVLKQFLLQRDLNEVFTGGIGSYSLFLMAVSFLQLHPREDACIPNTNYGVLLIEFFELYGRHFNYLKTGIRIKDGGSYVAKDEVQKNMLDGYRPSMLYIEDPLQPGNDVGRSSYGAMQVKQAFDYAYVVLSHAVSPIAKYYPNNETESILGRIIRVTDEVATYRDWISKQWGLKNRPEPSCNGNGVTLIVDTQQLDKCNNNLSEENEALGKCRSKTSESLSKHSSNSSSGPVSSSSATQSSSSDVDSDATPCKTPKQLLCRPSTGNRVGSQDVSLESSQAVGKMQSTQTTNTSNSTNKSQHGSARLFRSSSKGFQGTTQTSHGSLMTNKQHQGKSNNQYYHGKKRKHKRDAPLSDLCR
- Test Summary: High-throughput luminescence (KinaseGlo) RNA polyadenylation assay, ATP utilization by recombinant PAPD5
- Assay type: biochemical
- Test Conditions: Table 4 (entries of Table 5); 100 μM compound; ratio of luminescence with inhibitor to DMSO, higher = higher inhibition
Outcome Measure: Fold-change determined at compound concentration 100 μM

molecule="Cc1nc(-c2cnccn2)nc2c1CC(=O)N2CC1CCCO1 (centres unmarked) [Entry 230]" value_reported=1.527
molecule="Cc1ccc(-n2c(N3CCCC(C(=O)O)C3)nc3ccsc3c2=O)cc1 (centres unmarked) [Entry 38]" value_reported=1.631
molecule="c1cc(CNc2nc(C3CC3)nc3c2CCC3)ccn1 [Entry 45]" value_reported=1.936
molecule="CCOC(=O)c1c(NC(=O)CSc2n[nH]c3nc(=O)cc(C)n23)sc2c1CCCCC2 [Entry 200]" value_reported=1.414
molecule="CCOC(=O)c1cccc(NC(=O)c2oc3c(c2C)-c2nn(CC)cc2CC3)c1 [Entry 173]" value_reported=1.657

---

- Tested On: PAPD5 (Homo sapiens)
- Construct: made in house
- Test Summary: High-throughput luminescence (KinaseGlo) RNA polyadenylation assay, ATP utilization by recombinant PAPD5
- Type: biochemical
- Test Conditions: Table 4 (entries of Table 5); 33 μM compound; ratio of luminescence with inhibitor to DMSO
- Protocol: Optimal conditions for an in vitro RNA polyadenylation assay using recombinant PAPD5, ATP and an oligonucleotide substrate were identified. The HTS assay involved ATP utilization by PAPD5, which reads out as a decreased luminescence signal produced by luciferase (KinaseGlo, Promega, Madison, WI). 100 nl of compound dissolved in DMSO was transferred to each well of the assay plate via pin transfer. […] The fold change was the ratio of luminescence from a sample with inhibitor compared to that with DMSO. […]
Outcome Measure: Fold-change determined at compound concentration 33 μM

compound=CC(C)Cn1cc(NC(=O)NCc2ccc(Cl)cc2)c2ccccc2c1=O tested_on="PAPD5 (Homo sapiens)" value_reported=1.076
compound="N#CC1=C2SCN(C3CCCCC3)CN2C(=O)CC1c1ccc(Br)cc1 (stereo not shown)" tested_on="PAPD5 (Homo sapiens)" value_reported=1.09
compound=CCCn1c(=O)c2cc(F)ccc2n2c(=S)[nH]nc12 tested_on="PAPD5 (Homo sapiens)" value_reported=1.099
compound=Cc1cccc2c1-c1sc(C(=O)NCCCN3CCC(C)CC3)cc1CO2 tested_on="PAPD5 (Homo sapiens)" value_reported=1.095
compound=CN1CCCc2cc(C(=O)NC3CCCCC3)sc21 tested_on="PAPD5 (Homo sapiens)" value_reported=1.125

I: CCCc1cc(=O)n2nc(CNc3ccc(Cl)cc3)nc2[nH]1
II: Cc1nc[nH]c1CN1CCc2c(c3ccccc3n2C)C1=O
Input: Field: entry with larger Fold-change determined at compound concentration 33 μM (options I / II ). I would appreciate it if you answered with the label of your choice.
Output: II

---

- Tested On: PAPD5 (Homo sapiens, UniProt Q8NDF8)
- Construct: made in house
- Test Summary: High-throughput luminescence (KinaseGlo) RNA polyadenylation assay, ATP utilization by recombinant PAPD5
- Format: biochemical
- Test Conditions: Table 4 (entries of Table 5); 100 μM compound; ratio of luminescence with inhibitor to DMSO, higher = higher inhibition
Outcome Measure: Fold-change determined at compound concentration 100 μM

Use the examples below as a reference point.
compound=CCCn1c(=O)c2cc(F)ccc2n2c(=S)[nH]nc12 value_reported=1.256
compound=CCOc1ccc(-c2noc(Cn3cnc4c(cnn4-c4ccccc4)c3=O)n2)cc1OC value_reported=1.245

I: CCCc1cc(=O)n2nc(CNc3ccc(Cl)cc3)nc2[nH]1
II: CCCc1nnc(NC(=O)c2cc(=O)c3cc(C)c(C)cc3o2)s1
Input: Pick one: I or II . Which one has the lower reported Fold-change determined at compound concentration 100 μM? I would appreciate it if you answered with the label of your choice.
Output: I

---

- Tested On: PAPD5 (Homo sapiens)
- Construct: made in house
- Test Summary: High-throughput luminescence (KinaseGlo) RNA polyadenylation assay, ATP utilization by recombinant PAPD5
- Format: biochemical
- Test Conditions: Table 4 (entries of Table 5); 100 μM compound; ratio of luminescence with inhibitor to DMSO, higher = higher inhibition
Outcome Measure: Fold-change determined at compound concentration 100 μM

compound="CN1CCCc2cc(C(=O)NC3CCCCC3)sc21 [Entry 239]" tested_on="PAPD5 (Homo sapiens)" value_reported=1.314
compound="Cc1c(C(=O)N2CCCC2)oc2c1-c1nn(CC(=O)NCCCOC(C)C)cc1CC2 [Entry 168]" tested_on="PAPD5 (Homo sapiens)" value_reported=1.678
compound="O=C(O)C1CCCN(c2nc3c(-c4ccccc4)csc3c(=O)[nH]2)C1 (stereo not shown) [Entry 39]" tested_on="PAPD5 (Homo sapiens)" value_reported=1.527
compound="CCSc1nnc(NC(=O)c2cc(=O)c3cc(C)c(C)cc3o2)s1 [Entry 124]" tested_on="PAPD5 (Homo sapiens)" value_reported=1.858
compound="CC(C)Cn1c(=O)c2ccccc2n2c(=S)[nH]nc12 [Entry 73]" tested_on="PAPD5 (Homo sapiens)" value_reported=1.278

a: Nc1c2ccccc2nc2ccccc12 [Entry 30, acridin-9-amine]
b: Cn1c(=O)c2nc(SCCC(=O)O)n(Cc3ccccc3)c2n(C)c1=O [Entry 82]
Input: Pick one: a or b . Which one has the lower reported Fold-change determined at compound concentration 100 μM? I would appreciate it if you answered with the label of your choice.
Output: b
(b: 1.306, a: 1.944)

---

- Tested On: PAPD5 (Homo sapiens, UniProt Q8NDF8)
- Construct: made in house
- Test Summary: High-throughput luminescence (KinaseGlo) RNA polyadenylation assay, ATP utilization by recombinant PAPD5
- Format: biochemical
- Test Conditions: Table 4 (entries of Table 5); 100 μM compound; ratio of luminescence with inhibitor to DMSO, higher = higher inhibition
Outcome Measure: Fold-change determined at compound concentration 100 μM

Use the examples below as a reference point.
molecule="O=C(NCc1ccncc1)C1CCCN(c2ncnc3c2oc2ccccc23)C1 (stereo not drawn)" value_reported=1.239
molecule="CC(C)Cn1cc(NC(=O)NCc2ccccc2)c2ccccc2c1=O [Entry 57a]" value_reported=1.574
molecule=COc1ccc(-c2nc(N3CCOCC3)c3sc(CN(C)c4ncc(C(=O)NO)cn4)cc3n2)cn1 value_reported=2.528
molecule=Cc1cccc2c(=O)cc(C(=O)Nc3nnc(C(C)C)s3)oc12 value_reported=1.444
molecule=Cc1ccccc1CNC(=O)Cn1cc2c(n1)-c1c(oc(C(=O)N3CCCC3)c1C)CC2 value_reported=1.816
molecule="Cc1ccc2cccc(NC(=O)c3cccnc3)c2n1 [Entry 86, N-(2-methylquinolin-8-yl)nicotinamide]" value_reported=1.233
molecule=CCc1nc2[nH]c(-c3ccc(C)cc3)cc(=O)n2n1 value_reported=1.364
molecule=Cc1ccc(-c2n[nH]c(=O)c3c2CCCC3)cc1S(=O)(=O)Nc1ccc(S(N)(=O)=O)cc1 value_reported=1.492
molecule=COc1ccc(S(=O)(=O)Nc2cc3c(cc2Oc2ccccc2)n(C)c(=O)c(=O)n3C)cc1 value_reported=1.303
molecule=COc1cccc(-c2nnc3n(CCc4ccccc4)c(=O)c4ccccc4n23)c1O value_reported=1.219

I: Cc1ccc(C(=O)Nc2c(-c3ccccc3)nc3ccccn23)cc1C
II: CCOc1cccc2c1N[C@@H](c1ccc(C(=O)O)cc1)[C@H]1CC=C[C@@H]21
Input: Field: entry with larger Fold-change determined at compound concentration 100 μM (options I / II ). I would appreciate it if you answered with the label of your choice.
Output: II

---

- Tested On: PAPD5 (Homo sapiens)
- Construct: made in house
- Test Summary: High-throughput luminescence (KinaseGlo) RNA polyadenylation assay, ATP utilization by recombinant PAPD5
- Assay type: biochemical
- Test Conditions: Table 4 (entries of Table 5); 33 μM compound; ratio of luminescence with inhibitor to DMSO
Outcome Measure: Fold-change determined at compound concentration 33 μM

molecule=CC(=O)Nc1ccc2nc3c(=O)[nH]c(=O)[nH]c3nc2c1 value_reported=1.319
molecule=Cc1cc(C)c2nc(C)cc(C(=O)O)c2c1 value_reported=1.061
molecule=Cc1c2c(=O)n(-c3nc4ccccc4s3)[nH]c2cc(=O)n1CCc1cnc[nH]1 value_reported=1.151
molecule=CCOC(=O)c1c(NC(=O)CSc2n[nH]c3nc(=O)cc(C)n23)sc2c1CCCCC2 value_reported=1.038
molecule=CCOC(=O)c1c(C)nc2n(C)c3ccccc3n12 value_reported=1.146
molecule=CCCCn1c(=O)c2sccc2n2c(=S)[nH]nc12 value_reported=1.173
molecule=Cc1ccc(-c2onc3ccc(-c4cc(C(=O)O)c5ccccc5n4)cc23)cc1 value_reported=1.12
molecule="O=C(O)c1ccc(N2C(=O)c3[nH]nc(-c4ccccc4)c3C2c2cccc(O)c2)cc1 (stereo not drawn)" value_reported=1.068
molecule=O=C(O)Cc1c2ccccc2n2c1[nH]c(=O)c1ccccc12 value_reported=1.05
